Catalogue of ELISA signal readings, one per entry.
molecular target: T1, Recombinant Human DLL4 (human, UniProt Q9NR61 27-524); assay: ELISA on plate-coated DLL4, Fab at 2.22 nM (3-fold serial dilution)
T1 construct: Bought recombinant human DLL4 (R&D Systems 1506-D4/CF); also called delta-like protein 4; rHuman DLL4

BINDER	ELISA signal
Fab VH1-46_IGHD6-6*01_IGHJ1*01 S102A/S103P/S104F/H111F I51A/N52L/S54T/G56H & L6_IGKJ1*01 S28N/S30D/S31H (Fab, V domains shown, Fab expressed in E. coli: VH joined to CH1 from Plasmid A (His6 and Flag tags), VL joined to kappa CL from Plasmid C; also called H:APFF ALTH & L:NDH) VH: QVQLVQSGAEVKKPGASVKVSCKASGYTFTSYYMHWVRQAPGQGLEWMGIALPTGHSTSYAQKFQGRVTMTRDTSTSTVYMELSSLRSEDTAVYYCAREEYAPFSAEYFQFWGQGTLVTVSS VL: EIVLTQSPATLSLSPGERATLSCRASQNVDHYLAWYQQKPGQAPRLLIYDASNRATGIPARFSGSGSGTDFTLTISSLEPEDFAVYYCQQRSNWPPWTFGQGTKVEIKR	0.069
Fab VH1-46_IGHD6-6*01_IGHJ1*01 S102A/S103P/S104F/H111F N52L/S54T/G56H & L6_IGKJ1*01 S28N/S30D/S31H (Fab, V domains shown, Fab expressed in E. coli: VH joined to CH1 from Plasmid A (His6 and Flag tags), VL joined to kappa CL from Plasmid C; also called H:APFF LTH & L:NDH) VH: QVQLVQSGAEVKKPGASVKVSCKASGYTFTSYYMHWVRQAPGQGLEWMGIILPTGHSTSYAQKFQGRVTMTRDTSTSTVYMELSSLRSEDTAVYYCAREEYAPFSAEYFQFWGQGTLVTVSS VL: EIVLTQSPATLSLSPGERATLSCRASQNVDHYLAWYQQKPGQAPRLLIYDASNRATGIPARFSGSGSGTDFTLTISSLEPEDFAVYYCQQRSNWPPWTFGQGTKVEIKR	0.463
Fab VH1-46_IGHD6-6*01_IGHJ1*01 S102A/S103P/S104F/H111F I51V/N52L/S54T/G56H & L6_IGKJ1*01 S28N/S30D/S31H (Fab, V domains shown, Fab expressed in E. coli: VH joined to CH1 from Plasmid A (His6 and Flag tags), VL joined to kappa CL from Plasmid C; also called H:APFF VLTH & L:NDH) VH: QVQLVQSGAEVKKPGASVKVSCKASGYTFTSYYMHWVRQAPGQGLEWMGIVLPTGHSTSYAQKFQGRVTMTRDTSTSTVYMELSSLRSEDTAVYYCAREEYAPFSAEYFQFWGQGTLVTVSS VL: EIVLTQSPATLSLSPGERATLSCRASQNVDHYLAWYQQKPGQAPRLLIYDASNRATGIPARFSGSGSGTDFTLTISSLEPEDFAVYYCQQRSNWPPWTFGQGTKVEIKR	0.608
Fab VH1-46_IGHD6-6*01_IGHJ1*01 S102A/S103P/S104F/H111F I51V/N52L/S54T/G56H & L6_IGKJ1*01 S28N/S30D/S31H S52L/A55G (Fab, V domains shown, Fab expressed in E. coli: VH joined to CH1 from Plasmid A (His6 and Flag tags), VL joined to kappa CL from Plasmid C; also called H:APFF VLTH & L:NDH LG) VH: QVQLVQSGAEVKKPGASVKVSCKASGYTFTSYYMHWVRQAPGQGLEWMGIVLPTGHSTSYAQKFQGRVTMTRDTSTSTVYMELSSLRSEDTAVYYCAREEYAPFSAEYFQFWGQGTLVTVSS VL: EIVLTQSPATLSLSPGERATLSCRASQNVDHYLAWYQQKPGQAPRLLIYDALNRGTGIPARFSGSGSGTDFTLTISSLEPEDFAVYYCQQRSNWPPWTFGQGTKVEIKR	0.755
Fab VH1-46_IGHD6-6*01_IGHJ1*01 S102A/S103P/S104F/H111F I51A/N52L/S54T/G56H & L6_IGKJ1*01 S28N/S30D/S31H S52L/A55G (Fab, V domains shown, Fab expressed in E. coli: VH joined to CH1 from Plasmid A (His6 and Flag tags), VL joined to kappa CL from Plasmid C; also called H:APFF ALTH & L:NDH LG) VH: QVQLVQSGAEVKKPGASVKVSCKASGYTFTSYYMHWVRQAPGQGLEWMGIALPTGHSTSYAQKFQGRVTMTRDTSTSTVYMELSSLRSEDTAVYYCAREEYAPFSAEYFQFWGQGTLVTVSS VL: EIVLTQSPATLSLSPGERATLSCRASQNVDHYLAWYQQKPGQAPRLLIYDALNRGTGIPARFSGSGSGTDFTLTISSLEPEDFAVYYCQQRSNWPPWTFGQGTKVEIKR	0.069
Fab VH1-46_IGHD6-6*01_IGHJ1*01 S102A/S103P/S104F/H111F I51V/N52L/S54T/G56H & L6_IGKJ1*01 S28N/S30D/S31H S52L/A55S (Fab, V domains shown, Fab expressed in E. coli: VH joined to CH1 from Plasmid A (His6 and Flag tags), VL joined to kappa CL from Plasmid C; also called H:APFF VLTH & L:NDH LS) VH: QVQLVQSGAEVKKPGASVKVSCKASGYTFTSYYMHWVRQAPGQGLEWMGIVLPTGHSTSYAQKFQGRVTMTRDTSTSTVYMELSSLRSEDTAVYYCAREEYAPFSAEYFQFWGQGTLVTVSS VL: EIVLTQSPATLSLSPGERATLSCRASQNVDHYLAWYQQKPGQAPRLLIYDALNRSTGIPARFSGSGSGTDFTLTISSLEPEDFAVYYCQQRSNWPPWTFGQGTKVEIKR	0.523
Fab VH1-46_IGHD6-6*01_IGHJ1*01 S102A/S103P/S104F/H111F N52L/S54T/G56H & L6_IGKJ1*01 S28N/S30D/S31H S52L/A55S (Fab, V domains shown, Fab expressed in E. coli: VH joined to CH1 from Plasmid A (His6 and Flag tags), VL joined to kappa CL from Plasmid C; also called H:APFF LTH & L:NDH LS) VH: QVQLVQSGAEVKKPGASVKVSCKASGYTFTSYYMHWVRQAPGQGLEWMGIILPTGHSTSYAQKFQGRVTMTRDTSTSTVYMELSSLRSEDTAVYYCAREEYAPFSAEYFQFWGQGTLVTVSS VL: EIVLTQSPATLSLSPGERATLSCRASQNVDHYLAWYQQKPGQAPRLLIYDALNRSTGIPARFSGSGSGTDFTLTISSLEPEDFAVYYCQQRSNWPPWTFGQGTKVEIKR	0.557
Fab VH1-46_IGHD6-6*01_IGHJ1*01 S102A/S103P/S104F/H111F N52L/S54T/G56H & L6_IGKJ1*01 S28N/S30D/S31H S52L/A55G (Fab, V domains shown, Fab expressed in E. coli: VH joined to CH1 from Plasmid A (His6 and Flag tags), VL joined to kappa CL from Plasmid C; also called H:APFF LTH & L:NDH LG) VH: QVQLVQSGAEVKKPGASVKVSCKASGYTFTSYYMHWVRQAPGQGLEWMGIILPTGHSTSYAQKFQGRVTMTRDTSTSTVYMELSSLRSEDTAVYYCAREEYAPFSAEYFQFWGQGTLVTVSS VL: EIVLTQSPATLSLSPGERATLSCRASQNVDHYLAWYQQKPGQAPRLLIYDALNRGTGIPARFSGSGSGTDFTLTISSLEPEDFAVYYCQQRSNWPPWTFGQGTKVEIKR	0.594
Fab VH1-46_IGHD6-6*01_IGHJ1*01 S102A/S103P/S104F/H111F I51A/N52L/S54T/G56H & L6_IGKJ1*01 S28N/S30D/S31H S52L/A55S (Fab, V domains shown, Fab expressed in E. coli: VH joined to CH1 from Plasmid A (His6 and Flag tags), VL joined to kappa CL from Plasmid C; also called H:APFF ALTH & L:NDH LS) VH: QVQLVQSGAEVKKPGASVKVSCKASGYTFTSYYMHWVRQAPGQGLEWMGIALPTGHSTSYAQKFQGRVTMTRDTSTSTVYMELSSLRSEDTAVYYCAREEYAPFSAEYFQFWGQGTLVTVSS VL: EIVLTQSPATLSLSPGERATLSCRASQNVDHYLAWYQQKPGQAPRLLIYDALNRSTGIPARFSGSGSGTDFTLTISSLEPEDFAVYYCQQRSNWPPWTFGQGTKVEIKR	0.04
